Tested on: ZIKV-induced caspase 3/7 activity in SNB-19 cells
Test: Caspase 3/7 activity assay, ZIKV-infected SNB-19 cells
Type: cell-based
Conditions: Homo sapiens; ZIKV-infected SNB-19 cells; read-out: Caspase 3 (IC50, uM) SNB-19
PARAMETER MEASURED: IC50 (µM)
Respond with the bare value in µM.

> print(dat)
                                   compound  data.value
1  C/C(O)=C(\C#N)C(=O)Nc1ccc(C(F)(F)F)cc1 [Teriflunomide]        1.03
2      O=c1cc(-c2ccccc2)oc2cc(O)c(O)c(O)c12        29.1
3  CCOCCOC(=O)C=Cc1ccc(OC)cc1 [2-Ethoxylethyl-p-methoxycinnamate]        27.5
4         O=C(/C=C/c1ccc(O)cc1)c1ccc(O)cc1O        2.18
5            O=C1c2ccccc2C(=O)c2c1ccc(O)c2O        21.8

For the compound O=C(Nc1ccc(OC(F)(F)F)cc1)c1sccc1NCc1ccnc2ccccc12 , what IC50 is on record?
6.9

For the compound O=C(Nc1ccc([N+](=O)[O-])cc1Cl)c1cc(Cl)ccc1O [Niclosamide] , what IC50 is on record?
2.06

For the compound O=c1cc(-c2ccccc2)oc2cc(O)cc(O)c12 [5,7-Dihydroxyflavone] , what IC50 is on record?
8.69

For the compound c1ccc2[nH]c(-c3cscn3)nc2c1 , what IC50 is on record?
14.6

---

Listed here: items and their measured log10 IC50.
Biological target: ZIKV-induced caspase 3/7 activity in human astrocytes
Experiment: Caspase 3/7 activity assay, ZIKV-infected human astrocytes
Assay type: cell-based
Settings: ZIKV-infected human astrocytes; read-out: Caspase 3 (IC50, uM) Astrocyte
Structures can show the parent of a compound that is named as a salt.
All values: base-10 log of IC50 in µM.

Known results for compounds:
COMPOUND	log10 IC50
N#C/C(=C\c1ccc(O)c(O)c1)C(=O)Nc1ccccc1 [Tyrphostin AG 494]	1.26
OCc1ccc(-c2ccc(-c3ccc(CO)s3)o2)s1 [RITA]	1.44
COc1cccc(NC(=O)/C=C/c2ccc(Cl)cc2)c1 [SB-366791]	0.61
O=C1NC(=O)C(=Cc2ccc(-c3ccc(F)cc3)o2)S1 [CAY10505]	1.21
C/C1=C2/[N-][C@H]([C@H](CC(N)=O)[C@@]2(C)CCC(=O)NC[C@@H](C)OP(=O)([O-])O[C@H]2[C@@H](O)[C@@H](n3cnc4cc(C)c(C)cc43)O[C@@H]2CO)[C@]2(C)N=C(/C(C)=C3N=C(/C=C4N=C1[C@@H](CCC(N)=O)C\4(C)C)[C@@H](CCC(N)=O)[C@]\3(C)CC(N)=O)[C@@H](CCC(N)=O)[C@]2(C)CC(N)=O.[Co+3].[OH-] [Hydroxocobalamin]	-0.01
Nc1ccc(-c2ccc3ccccc3n2)cc1 [BF-170 hydrochloride]	0.66

For the compound CC(=O)Nc1ccc([C@H](C)C(=O)Nc2ncc(C(C)C)s2)cc1 [PHA-690509] , what log10 IC50 is on record?
1.11

---

Target: ZIKV-induced caspase 3/7 activity in hNPCs
Experiment: Caspase 3/7 activity assay, ZIKV-infected hNPCs
Assay type: cell-based
Details: ZIKV-infected hNPCs; read-out: Caspase 3 (IC50, uM) NPCs
Description: Caspase-Glo 3/7 assay kit (catalog number G8092; Promega, Madison, Wis.) was used to detect caspase 3/7 activity. Reagents were reconstituted as described in the protocol from the manufacturer. […] The luminescence intensity of the assay plates was measured using a ViewLux plate reader (PerkinElmer). […] Caspase-Glo 3/7 assay kit (Promega) was used to detect caspase 3/7 activity. […] The luminescence intensity of the assay plates was measured using a ViewLux plate reader (PerkinElmer). […]
Where a name gives a salt, the structure may show the parent alone.
Values of IC50 strictly less than 5 µM map to MET, and values of at least 5 µM map to NOT MET.

COMPOUND	GROUP LABEL
O=C1NC(=O)C(=Cc2ccc(-c3ccc(F)cc3)o2)S1 [CAY10505]	NOT MET
Nc1ccc(-c2ccc3ccccc3n2)cc1 [BF-170 hydrochloride]	MET
CC(C)(C)COc1ccc(-n2cc(C(=O)O)cn2)cc1C#N [Piraxostat]	NOT MET

Does this compound meet the criterion IC50 < 5 µM? C/C1=C2/[N-][C@H]([C@H](CC(N)=O)[C@@]2(C)CCC(=O)NC[C@@H](C)OP(=O)([O-])O[C@H]2[C@@H](O)[C@@H](n3cnc4cc(C)c(C)cc43)O[C@@H]2CO)[C@]2(C)N=C(/C(C)=C3N=C(/C=C4N=C1[C@@H](CCC(N)=O)C\4(C)C)[C@@H](CCC(N)=O)[C@]\3(C)CC(N)=O)[C@@H](CCC(N)=O)[C@]2(C)CC(N)=O.[Co+3].[OH-] [Hydroxocobalamin]
MET

Does this compound meet the criterion IC50 < 5 µM? O=C1NC(=O)/C(=C/c2ccc(-c3ccc(F)cc3O)o2)S1 [AS-252424]
MET

Does this compound meet the criterion IC50 < 5 µM? CN1CC(=O)NC1=NC(=O)Nc1cccc(Cl)c1 [Fenobam]
NOT MET

Does this compound meet the criterion IC50 < 5 µM? Cc1cccc(/C=C/c2ccccc2)n1 [SIB 1893]
NOT MET

---

Test system: ZIKV-induced caspase 3/7 activity in hNPCs
Experiment: Caspase 3/7 activity assay, ZIKV-infected hNPCs
Type: cell-based
Settings: Homo sapiens; ZIKV-infected hNPCs; read-out: Caspase 3 (IC50, uM) NPCs
Structures can show the parent of a compound that is named as a salt.
PARAMETER MEASURED: IC50
Please state the number and follow it with the unit.

Known results for molecules:
> print(dat)
                                 molecule                           measured.target  parameter.measured  data.value
1              O=C(OCc1ccccc1)c1ccc(O)cc1  ZIKV-induced caspase 3/7 activity in hNPCs                IC50     15.5 µM
2  Cc1cc(O)c2c(c1)C(=O)c1cc(O)cc(O)c1C2=O  ZIKV-induced caspase 3/7 activity in hNPCs                IC50     2.59 µM

For the molecule CC(=O)Oc1ccccc1C(=O)Nc1ncc([N+](=O)[O-])s1 [Nitazoxanide] , what IC50 is on record?
1.26 µM

For the molecule O=c1c2ccccc2[se]n1-c1ccccc1 , what IC50 is on record?
8.2 µM

For the molecule O=C(O)c1ccccc1Nc1cccc(C(F)(F)F)c1 , what IC50 is on record?
17.3 µM

For the molecule O=C(O)CCC(=O)c1ccc(-c2ccccc2)cc1 , what IC50 is on record?
19.5 µM

For the molecule O=C1c2ccccc2C(=O)c2c1ccc(O)c2O , what IC50 is on record?
21.8 µM

For the molecule O=C(Nc1ccc(Br)cc1)c1cc(Br)cc(Br)c1O , what IC50 is on record?
13.8 µM

For the molecule CN1CC[C@@]2(C)c3cc(OC(=O)Nc4ccccc4)ccc3N(C)[C@@H]12 , what IC50 is on record?
25.9 µM

For the molecule CC(C(=O)O)c1ccc(C(=O)c2cccs2)cc1 (centres unmarked) , what IC50 is on record?
15.5 µM

For the molecule COc1cc2nc(N3CCN(C(=O)C4CCCO4)CC3)nc(N)c2cc1OC (centres unmarked) [Terazosin hydrochloride] , what IC50 is on record?
10.9 µM

---

Tested on: ZIKV-induced cell death in hNPCs
Experiment: ATP cell viability assay for ZIKV-induced cell death, hNPCs
Assay type: cell-based, human
Details: ZIKV-infected hNPCs
Listed here: items and their measured Cell viability (efficacy, %) NPCs.
Respond with the bare value in %.

Known results for compounds:
COMPOUND	MEASURED TARGET	UNIT INFO	DATA VALUE
Nc1nc2ccc([N+](=O)[O-])cc2s1 [2-Amino-6-nitrobenzothiazole]	ZIKV-induced cell death in hNPCs	%	0.0
N#CC1(c2ccc(NC(=O)c3cccnc3NCc3ccncc3)cc2)CCCC1 [Apatinib]	ZIKV-induced cell death in hNPCs	%	0.0
COc1ccc(-c2cc(=S)ss2)cc1 [Anethole trithione]	ZIKV-induced cell death in hNPCs	%	0.0
CC(=O)Oc1cccc2c1C(=O)c1c(OC(C)=O)cc(C(=O)O)cc1C2=O [Diacerein]	ZIKV-induced cell death in hNPCs	%	0.0
O=S(=O)(O)c1ccc2[nH]c(-c3ccccc3)nc2c1 [Ensulizole]	ZIKV-induced cell death in hNPCs	%	0.0
CN(C)CCCSc1ccccc1NC(=O)/C=C/c1ccccc1 [Cinanserin]	ZIKV-induced cell death in hNPCs	%	0.0
O=C(O)CCC(=O)c1ccc(-c2ccccc2)cc1 [Fenbufen]	ZIKV-induced cell death in hNPCs	%	0.0
Cc1ccc(O)c(-n2nc3ccccc3n2)c1 [2-(2H-Benzotriazol-2-yl)-4-methylphenol]	ZIKV-induced cell death in hNPCs	%	0.0

Let's switch to this compound now.
For the compound CC(C(=O)O)c1ccc(C(=O)c2cccs2)cc1 (centres unmarked) [Suprofen] , what Cell viability (efficacy, %) NPCs is on record?
0.0
